system-name: T1, recombinant human G-CSF (Genscript) (human, UniProt P09919-2 31-204, limits assumed)
T1 construct: also called hG-CSF; granulocyte colony stimulating factor
T1 sequence (looked up): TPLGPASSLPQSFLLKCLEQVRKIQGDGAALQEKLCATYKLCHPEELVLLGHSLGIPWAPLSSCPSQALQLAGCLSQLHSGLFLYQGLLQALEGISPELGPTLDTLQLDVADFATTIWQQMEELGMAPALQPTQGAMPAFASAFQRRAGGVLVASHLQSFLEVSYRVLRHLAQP
assay-name: SPR (Antigen binding (SPR)); antibody captured on an anti-Fc surface, antigen flowed over; column head Koff (10-4 x s-1)
recorded-metric: koff

anti-G-CSF antibody clone 1B11 (antibody, V domains shown, Mouse hybridoma monoclonal antibody; also called 1B11.2; 3A3) VH: QVHLQQSGAELARPGASVKMSCKASGYTFPIYTMHWIKQRPGQGLEWIGYINPSIGYANYNQKFRDKATLTADKSSSTAYMQLSSLTSEDSAVYYCARGGYGDSLFAYWGQGTLVTVSA VL: DIVMTQAAFSNPVTLGTSASISCRSSKSLLHSNGITYLYWYLQKPGQSPQLLIYQMSNLASGVPDRFSSSGSGTDFTLRISRVEAEDVGVYYCAQNLELPYTFGGGTKLEIK    5e-05 s⁻¹

Memo: humanized 1B11 antibody variant 7 (h1L/h1H) (antibody, V domains shown, also called clone 7; Variant 7 anti-G-CSF antibody) VH: QVQLVQSGAEVKKPGASVKVSCKASGYTFPIYTMHWVRQAPGQGLEWMGYINPSIGYANYNQKFRDRVTITADTSTSTAYMELSSLRSEDTAVYYCARGGYGDSLFAYWGQGTLVTVSS VL: DIVMTQSPLSLPVTPGEPASISCRSSKSLLHSNGITYLYWYLQKPGQSPQLLIYQMSNLASGVPDRFSGSGSGTDFTLKISRVEAEDVGVYYCAQNLELPYTFGQGTKLEIK , reported koff: 0.00017 s⁻¹

Memo: humanized 1B11 antibody variant 14 (h2L/h3H) (antibody, V domains shown, variable domains only; also called clone 14) VH: QVQLVQSGAEVKKPGASVKVSCKASGYTFPIYTMHWIKQAPGQGLEWIGYINPSIGYANYNQKFRDRATLTADKSTSTAYMELSSLRSEDTAVYYCARGGYGDSLFAYWGQGTLVTVSS VL: DIVMTQSPLSLPVTPGEPASISCRSSKSLLHSNGITYLYWYLQKPGQSPQLLIYQMSNLASGVPDRFSSSGSGTDFTLKISRVEAEDVGVYYCAQNLELPYTFGQGTKLEIK , reported koff: 0.00013 s⁻¹
